# Assayed System: UniProt P35363
# Procedure Summary: Radioligand competition binding, [3H]Ketanserin, m5-HT2A in HEK293 membranes
# Condition Details: Ki, [3H]Ketanserin, one-site fit Ki, mean
Experimental Readout: pKi
Recall that pKi is obtained by taking minus log10 of the concentration measured in molar.

The molecule identified as C[C@H]1CNCCc2ccc(Cl)cc21 registered its pKi at 5.35

---

# Assayed System: m5-HT2A (Mus musculus, UniProt P35363)
# Sequence (P35363 whole entry): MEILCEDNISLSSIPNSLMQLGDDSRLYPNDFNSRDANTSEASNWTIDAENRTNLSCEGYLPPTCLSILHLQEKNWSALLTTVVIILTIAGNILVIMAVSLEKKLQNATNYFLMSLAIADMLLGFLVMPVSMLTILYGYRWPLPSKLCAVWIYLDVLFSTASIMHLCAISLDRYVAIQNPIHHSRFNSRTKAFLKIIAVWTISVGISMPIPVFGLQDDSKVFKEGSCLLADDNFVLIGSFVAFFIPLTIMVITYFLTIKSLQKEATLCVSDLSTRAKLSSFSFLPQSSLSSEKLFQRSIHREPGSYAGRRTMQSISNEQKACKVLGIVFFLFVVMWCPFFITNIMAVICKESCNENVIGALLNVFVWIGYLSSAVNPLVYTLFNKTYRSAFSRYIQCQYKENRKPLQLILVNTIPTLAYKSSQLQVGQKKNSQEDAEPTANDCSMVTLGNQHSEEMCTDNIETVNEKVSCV
# Procedure Summary: Radioligand competition binding, [3H]Ketanserin, m5-HT2A in HEK293 membranes
# Condition Details: pKi (95% CI), [3H]Ketanserin, one-site fit Ki, mean (95% CI)
Experimental Readout: pKi
Just so you know, pKi here is -log10 of the concentration in molar units; reply with that number alone.

Record O=C(c1ccc(F)cc1)C1CCN(CCn2c(=O)[nH]c3ccccc3c2=O)CC1 [Ketanserin] , field pKi: 8.57

// provenance: paper PMC8296307
